- System: FXR:RXRa (NR concentration 270 nM, RXRa partner concentration 90 nM)
- Measurement Protocol: PBM binding z-score (relative to random genomic background probes); higher = stronger binding; sequences stand for … in GC…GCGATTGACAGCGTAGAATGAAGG
# PBM binding z-score >= 1 gives true, anything below gives false

{"Seq Text": "CCGACTGGGGCAAGGTTAGCATAACGCACAGCCA", "Measurement Target": "FXR:RXRa (NR concentration 270 nM, RXRa partner concentration 90 nM)", "Label Class": "false"}
{"Seq Text": "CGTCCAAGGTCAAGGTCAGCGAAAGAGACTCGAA", "Measurement Target": "FXR:RXRa (NR concentration 270 nM, RXRa partner concentration 90 nM)", "Label Class": "true"}
{"Seq Text": "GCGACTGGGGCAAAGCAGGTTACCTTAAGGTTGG", "Measurement Target": "FXR:RXRa (NR concentration 270 nM, RXRa partner concentration 90 nM)", "Label Class": "false"}
{"Seq Text": "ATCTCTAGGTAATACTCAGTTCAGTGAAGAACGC", "Measurement Target": "FXR:RXRa (NR concentration 270 nM, RXRa partner concentration 90 nM)", "Label Class": "false"}
{"Seq Text": "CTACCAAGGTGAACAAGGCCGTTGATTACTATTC", "Measurement Target": "FXR:RXRa (NR concentration 270 nM, RXRa partner concentration 90 nM)", "Label Class": "false"}
{"Seq Text": "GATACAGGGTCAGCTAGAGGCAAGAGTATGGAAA", "Measurement Target": "FXR:RXRa (NR concentration 270 nM, RXRa partner concentration 90 nM)", "Label Class": "true"}
{"Seq Text": "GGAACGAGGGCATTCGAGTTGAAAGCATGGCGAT", "Measurement Target": "FXR:RXRa (NR concentration 270 nM, RXRa partner concentration 90 nM)", "Label Class": "true"}
{"Seq Text": "TCTGCTAGGTCAACGATGCTCAGCTAATCTGCTA", "Measurement Target": "FXR:RXRa (NR concentration 270 nM, RXRa partner concentration 90 nM)", "Label Class": "true"}
{"Seq Text": "CATAGCAGGCCAATCTGGGTCACTCAAGGCTTGA", "Measurement Target": "FXR:RXRa (NR concentration 270 nM, RXRa partner concentration 90 nM)", "Label Class": "false"}
{"Seq Text": "GATACAGGGTCACCTAGAGGCCAGAGTATGGAAA", "Measurement Target": "FXR:RXRa (NR concentration 270 nM, RXRa partner concentration 90 nM)", "Label Class": "true"}
{"Seq Text": "ATCGAAAGGTCGAAGGTGGGTATACCCACCCGAA", "Measurement Target": "FXR:RXRa (NR concentration 270 nM, RXRa partner concentration 90 nM)", "Label Class": "true"}
{"Seq Text": "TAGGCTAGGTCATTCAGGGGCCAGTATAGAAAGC", "Measurement Target": "FXR:RXRa (NR concentration 270 nM, RXRa partner concentration 90 nM)", "Label Class": "true"}
{"Seq Text": "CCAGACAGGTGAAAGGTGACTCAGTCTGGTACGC", "Measurement Target": "FXR:RXRa (NR concentration 270 nM, RXRa partner concentration 90 nM)", "Label Class": "true"}
{"Seq Text": "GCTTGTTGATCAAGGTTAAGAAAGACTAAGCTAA", "Measurement Target": "FXR:RXRa (NR concentration 270 nM, RXRa partner concentration 90 nM)", "Label Class": "false"}
{"Seq Text": "TCATATAGGTAAATGCTAGGTGATAGTCCGATCT", "Measurement Target": "FXR:RXRa (NR concentration 270 nM, RXRa partner concentration 90 nM)", "Label Class": "false"}
{"Seq Text": "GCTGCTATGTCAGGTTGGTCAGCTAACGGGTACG", "Measurement Target": "FXR:RXRa (NR concentration 270 nM, RXRa partner concentration 90 nM)", "Label Class": "false"}
{"Seq Text": "CCGACTGGGGCAAGGTTATCATAACGCACAGCCA", "Measurement Target": "FXR:RXRa (NR concentration 270 nM, RXRa partner concentration 90 nM)", "Label Class": "false"}
{"Seq Text": "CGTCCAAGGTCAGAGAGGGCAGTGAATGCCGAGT", "Measurement Target": "FXR:RXRa (NR concentration 270 nM, RXRa partner concentration 90 nM)", "Label Class": "true"}
{"Seq Text": "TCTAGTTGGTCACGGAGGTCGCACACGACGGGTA", "Measurement Target": "FXR:RXRa (NR concentration 270 nM, RXRa partner concentration 90 nM)", "Label Class": "false"}
{"Seq Text": "CGTCAAAGTTCAAGTAAGGTAACGTAAAGCACGC", "Measurement Target": "FXR:RXRa (NR concentration 270 nM, RXRa partner concentration 90 nM)", "Label Class": "true"}
{"Seq Text": "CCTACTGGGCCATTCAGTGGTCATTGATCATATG", "Measurement Target": "FXR:RXRa (NR concentration 270 nM, RXRa partner concentration 90 nM)", "Label Class": "false"}
{"Seq Text": "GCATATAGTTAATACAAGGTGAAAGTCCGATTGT", "Measurement Target": "FXR:RXRa (NR concentration 270 nM, RXRa partner concentration 90 nM)", "Label Class": "false"}
{"Seq Text": "ATCTATAGGTAAAGATAGTTCAGTGAATGCAAAT", "Measurement Target": "FXR:RXRa (NR concentration 270 nM, RXRa partner concentration 90 nM)", "Label Class": "false"}
{"Seq Text": "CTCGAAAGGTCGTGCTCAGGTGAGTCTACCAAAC", "Measurement Target": "FXR:RXRa (NR concentration 270 nM, RXRa partner concentration 90 nM)", "Label Class": "true"}
{"Seq Text": "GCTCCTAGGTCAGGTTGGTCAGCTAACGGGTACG", "Measurement Target": "FXR:RXRa (NR concentration 270 nM, RXRa partner concentration 90 nM)", "Label Class": "true"}
{"Seq Text": "TCTAGCAGGCCAGCGGGTCACTCAAGAGGTACGG", "Measurement Target": "FXR:RXRa (NR concentration 270 nM, RXRa partner concentration 90 nM)", "Label Class": "false"}
